- ASSAY_EXPLANATION: qHTS assay to identify small molecule agonists of the androgen receptor (AR) signaling pathway in the presence of an antagonist - cell viability counter screen (AID 1259379); also: nearly all actives have a fitted effect of over 25% in size
- CONDITIONS_USED: MDA-kb2 viability, CellTiter-Fluor, 16 h; series mostly up to 92.4 µM
Records with an inconclusive call do not appear. The source made the active and inactive calls. Calls follow the shape of the dose curve; as a rule, active = well fitted cell-killing curve with a large enough effect in the repeat runs; inconclusive = weak or mixed curves, or effect the other way; inactive = flat fitted curve, though single readings scatter.
Permitted responses: active, inactive

Solved cases (5 shown):
> print(dat)
                                   compound  assigned.label
1  COc1c(C(C)(C)C)cc([N+](=O)[O-])c(C)c1[N+](=O)[O-]        inactive
2                               IC(I)=C(I)I          active
3                            CC(=O)CCC(C)=O        inactive
4   C#CCOC(C(=O)OCCN(C)C)(c1ccccc1)c1ccccc1        inactive
5  CCC(COC(=O)c1cc(OC)c(OC)c(OC)c1)(c1ccccc1)N(C)C (stereo not drawn)        inactive

Call for entry O=C1C(Cl)C(CCl)CN1c1cccc(C(F)(F)F)c1 (stereo not drawn) :
inactive

Call for entry Nc1nc(N)nc(N)n1 :
inactive

Call for entry ClCc1cccc(Cl)c1 :
inactive

Call for entry COc1cc(CC(C)N)cc2c1OCO2 (stereo not drawn) :
inactive

Call for entry CC(C)=CCOc1c2occc2cc2ccc(=O)oc12 :
inactive

Call for entry CCC(Br)(CC)C(=O)NC(N)=O :
inactive

Call for entry c1ccc(CN2CCNCC2)cc1 :
inactive

Call for entry CN1C[C@H](CNC(=O)OCc2ccccc2)C[C@@H]2c3cccc4c3c(cn4C)C[C@H]21 :
inactive

----------
- ASSAY_EXPLANATION: qHTS assay to test for compound auto fluorescence at 590 nm (red) in HEK293 cells (AID 720679)
- CONDITIONS_USED: red autofluorescence 540/590 nm; series mostly up to 91.3 µM
- Description: National Center for Advancing Translational Sciences [NCATS] NIH Chemical Genomics Center [NCGC] U.S. Environmental Protection Agency [EPA] National Institutes of Environmental Health Sciences [NIEHS] National Toxicology Program [NTP] U.S. Food and Drug Administration [FDA] Compound auto fluorescence often interferes with screening of the compound library against various biological targets and signaling pathways. Some of these compounds may have fluorophoric properties. […]
Calls of active or inactive are those of the source. Calls come from the whole dose curve; as a rule, active = well fitted curve in the direction sought with a large enough effect in the repeat runs; inconclusive = weak or mixed curves; inactive = flat fitted curve, though single readings scatter.
ENDPOINT_NAME: fluorescence, % of fluorescent control

As a guide, the following entries are already answered.
> print(dat)
                                   compound  result.value
1  CC(O)(CS(=O)(=O)c1ccc(F)cc1)C(=O)Nc1ccc(C#N)c(C(F)(F)F)c1 (stereo not given)      inactive
2                              O=NN1CCCCCC1      inactive
3      CCOP(=O)(OCC)Oc1ccc([N+](=O)[O-])cc1      inactive
4                                 NCCCNCCCN      inactive
5  O=[N+]([O-])c1cc(C(F)(F)F)cc([N+](=O)[O-])c1Cl      inactive

Please report fluorescence, % of fluorescent control for every entry that follows.
1. N#Cc1ccc(Cl)cc1
2. O=C1C(Cl)C(CCl)CN1c1cccc(C(F)(F)F)c1 (stereo not given)
3. C=CC(C)=O
4. OC(c1ccc(Cl)cc1)(c1ccc(Cl)cc1)c1cccnc1
5. Clc1cccc(SC2CCNCC2)n1

1. inactive
2. inactive
3. inactive
4. inactive
5. inactive
